TESTED ON: IL-23 (human, p19/p40 heterodimer) (Homo sapiens, UniProt Q9NPF7;P29460 SEQ:20-189,SEQ:23-328)
Sequence (Q9NPF7 20-189, chain 1 of 2): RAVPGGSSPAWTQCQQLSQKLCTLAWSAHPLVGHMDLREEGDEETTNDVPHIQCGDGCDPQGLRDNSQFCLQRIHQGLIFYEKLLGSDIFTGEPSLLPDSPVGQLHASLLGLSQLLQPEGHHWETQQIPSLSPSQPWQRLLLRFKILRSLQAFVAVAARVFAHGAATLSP
Sequence (P29460 23-328, chain 2 of 2): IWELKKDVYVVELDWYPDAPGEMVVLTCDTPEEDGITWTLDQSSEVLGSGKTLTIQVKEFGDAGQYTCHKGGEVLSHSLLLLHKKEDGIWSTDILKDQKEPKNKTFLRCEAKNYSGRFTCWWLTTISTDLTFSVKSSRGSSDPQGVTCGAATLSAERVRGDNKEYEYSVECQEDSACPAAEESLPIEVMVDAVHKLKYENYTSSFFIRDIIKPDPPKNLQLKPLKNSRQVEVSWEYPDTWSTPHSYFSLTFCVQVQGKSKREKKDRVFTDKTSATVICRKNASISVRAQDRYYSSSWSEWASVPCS
RUN DESCRIPTION: cell_activity; TransAM STAT3, PHA blasts, 3 ng/mL hIL-23
MEASUREMENT CONTEXT: tags: R&D Systems
ENDPOINT NAME: IC50 (nM)
Give bare numbers, in nM.

Could you share which IC50 value was measured for AMX84-H12 family clone AMX91-H12 (ssRNA, 2'-F C and U, 2'-OH A and G) RNA: GGGAAAAGCGAAUCAUACACAAGACGUGUGCUUUAUGUAAACCAUAACGUUCCAUAAGGAAUAUGCUCCGCCAGAGACCAACCGAGAA ? 350
